# target_desc: panel of 442 kinases (Homo sapiens, UniProt P10721, V559D)
# Construct: purchased Ambit Biosciences (scanMAXX KINOMEscan)
# Sequence (P10721 26-976 V559D): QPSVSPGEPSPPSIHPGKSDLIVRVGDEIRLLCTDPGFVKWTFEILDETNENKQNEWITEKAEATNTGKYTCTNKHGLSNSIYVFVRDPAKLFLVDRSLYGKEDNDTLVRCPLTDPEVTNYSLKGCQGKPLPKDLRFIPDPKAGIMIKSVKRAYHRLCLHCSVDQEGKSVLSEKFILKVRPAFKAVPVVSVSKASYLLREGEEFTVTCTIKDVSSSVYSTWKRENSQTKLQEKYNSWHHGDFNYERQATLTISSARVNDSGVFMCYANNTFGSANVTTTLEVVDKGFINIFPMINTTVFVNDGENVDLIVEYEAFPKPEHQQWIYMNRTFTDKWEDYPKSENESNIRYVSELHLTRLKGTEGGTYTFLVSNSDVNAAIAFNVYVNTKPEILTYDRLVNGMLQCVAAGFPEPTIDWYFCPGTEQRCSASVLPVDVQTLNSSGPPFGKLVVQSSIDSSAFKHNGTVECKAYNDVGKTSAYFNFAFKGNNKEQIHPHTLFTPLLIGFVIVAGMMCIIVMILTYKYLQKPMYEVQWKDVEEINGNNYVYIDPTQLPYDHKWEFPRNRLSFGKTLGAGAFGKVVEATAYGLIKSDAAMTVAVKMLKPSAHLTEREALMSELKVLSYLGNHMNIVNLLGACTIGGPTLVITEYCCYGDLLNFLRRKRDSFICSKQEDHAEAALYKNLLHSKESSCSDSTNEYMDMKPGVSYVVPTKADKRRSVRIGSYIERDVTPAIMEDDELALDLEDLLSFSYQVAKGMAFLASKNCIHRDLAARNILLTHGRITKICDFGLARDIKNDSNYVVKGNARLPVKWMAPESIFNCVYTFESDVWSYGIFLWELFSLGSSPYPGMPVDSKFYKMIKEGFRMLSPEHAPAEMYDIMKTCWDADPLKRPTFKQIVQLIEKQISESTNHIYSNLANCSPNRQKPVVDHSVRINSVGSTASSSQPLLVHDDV
# test_protocol: biochemical
# Format: binding
# reported_conditions: kinase KIT(V559D); 1 µM; read-out: % of control at 1 µM
reported_property: remaining activity at 1 µM (%)
Write it as a number; the unit % goes unstated.

Data point: `FC(F)c1nc2ccccc2n1-c1nc(N2CCOCC2)nc(N2CCOCC2)n1` ; remaining activity at 1 µM = 84

For reference, reported remaining activity at 1 µM for `Cn1c(=O)n(-c2ccc(C(C)(C)C#N)cc2)c2c3cc(-c4cnc5ccccc5c4)ccc3ncc21` stands at 65

Reported remaining activity at 1 µM ( `COc1ncc(-c2ccc3nccc(-c4ccnnc4)c3c2)cc1NS(=O)(=O)c1ccc(F)cc1F` ) = 96

Entry under test: `Nc1cc(C(F)(F)F)c(-c2cc(N3CCOCC3)nc(N3CCOCC3)n2)cn1` . Its remaining activity at 1 µM was 100

----------
# target_desc: panel of 442 kinases (Homo sapiens, UniProt Q16659)
# Construct: purchased Ambit Biosciences (scanMAXX KINOMEscan)
# Sequence (Q16659 whole entry): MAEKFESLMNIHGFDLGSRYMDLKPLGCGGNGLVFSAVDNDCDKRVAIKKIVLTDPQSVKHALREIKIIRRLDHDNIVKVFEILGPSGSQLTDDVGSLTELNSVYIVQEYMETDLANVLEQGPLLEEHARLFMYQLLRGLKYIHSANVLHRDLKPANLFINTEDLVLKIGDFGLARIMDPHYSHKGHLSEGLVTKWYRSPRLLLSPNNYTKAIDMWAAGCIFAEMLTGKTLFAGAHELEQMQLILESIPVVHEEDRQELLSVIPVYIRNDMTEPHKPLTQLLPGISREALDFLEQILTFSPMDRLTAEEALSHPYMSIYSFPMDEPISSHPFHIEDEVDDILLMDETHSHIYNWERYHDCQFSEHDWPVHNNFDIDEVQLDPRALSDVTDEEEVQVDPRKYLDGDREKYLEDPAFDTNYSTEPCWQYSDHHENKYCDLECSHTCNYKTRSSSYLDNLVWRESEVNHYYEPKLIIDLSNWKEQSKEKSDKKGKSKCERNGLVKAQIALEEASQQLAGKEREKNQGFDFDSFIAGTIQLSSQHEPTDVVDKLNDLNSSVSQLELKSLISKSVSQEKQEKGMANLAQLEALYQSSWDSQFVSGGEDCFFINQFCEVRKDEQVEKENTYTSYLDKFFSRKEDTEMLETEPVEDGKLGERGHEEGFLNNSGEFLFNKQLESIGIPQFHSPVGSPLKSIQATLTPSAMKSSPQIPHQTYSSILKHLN
# test_protocol: biochemical
# Assay type: binding
# reported_conditions: ERK3; 1 µM; read-out: % of control at 1 µM
reported_property: remaining activity at 1 µM (%)
Give the number; % is assumed, so skip it.

Lab note: `Nc1cc(C(F)(F)F)c(-c2cc(N3CCOCC3)nc(N3CCOCC3)n2)cn1` gave remaining activity at 1 µM of 96

Value of remaining activity at 1 µM reported for the compound `Cn1c(=O)n(-c2ccc(C(C)(C)C#N)cc2)c2c3cc(-c4cnc5ccccc5c4)ccc3ncc21` is 97

Record summary for `FC(F)c1nc2ccccc2n1-c1nc(N2CCOCC2)nc(N2CCOCC2)n1` : reported remaining activity at 1 µM = 100

`COc1ncc(-c2ccc3nccc(-c4ccnnc4)c3c2)cc1NS(=O)(=O)c1ccc(F)cc1F` has a reported remaining activity at 1 µM of 85

----------
# target_desc: panel of 442 kinases (Homo sapiens, UniProt Q9Y2H9)
# Construct: purchased Ambit Biosciences (scanMAXX KINOMEscan)
# test_protocol: biochemical
# Assay type: binding
# reported_conditions: kinase MAST1; 1 µM; read-out: % of control at 1 µM
I'd be grateful if you could share measured remaining activity at 1 µM for these entries.
# unit: % | format: bare number

The measured remaining activity at 1 µM that COc1ncc(-c2ccc3nccc(-c4ccnnc4)c3c2)cc1NS(=O)(=O)c1ccc(F)cc1F [Omipalisib] showed for panel of 442 kinases (Homo sapiens, UniProt Q9Y2H9) is 100

Lab entry: panel of 442 kinases (Homo sapiens, UniProt Q9Y2H9) assay, compound Nc1cc(C(F)(F)F)c(-c2cc(N3CCOCC3)nc(N3CCOCC3)n2)cn1 [Buparlisib] , remaining activity at 1 µM = 53

Reported panel of 442 kinases (Homo sapiens, UniProt Q9Y2H9) remaining activity at 1 µM for item FC(F)c1nc2ccccc2n1-c1nc(N2CCOCC2)nc(N2CCOCC2)n1 [ZSTK474] was 100

Given the compound Cn1c(=O)n(-c2ccc(C(C)(C)C#N)cc2)c2c3cc(-c4cnc5ccccc5c4)ccc3ncc21 [Dactolisib] and test system panel of 442 kinases (Homo sapiens, UniProt Q9Y2H9), the measured remaining activity at 1 µM is 100

----------
# test_protocol: Rat dose proportionality study (oral)
# reported_conditions: male, Sprague-Dawley, plasma, 10 mg/kg
reported_property: Cmax (nM)
Quick reminder: number only, in nM, skip the unit.

Recorded Cmax (compound `COc1cccc2c1nc(C(F)F)n2-c1nc(N2CCOCC2)nc(N2CCN(S(=O)(=O)CCN(C)C)CC2)n1` ): 34.1

----------
Consider the following compounds; for each one, report its remaining activity at 1 µM.
# target_desc: panel of 442 kinases (Homo sapiens)
# Construct: purchased Ambit Biosciences (scanMAXX KINOMEscan)
# test_protocol: biochemical
# Format: binding
# reported_conditions: DLK; 1 µM; read-out: % of control at 1 µM
Give just the numeric value; % need not be written.

According to the records, this compound `COc1ncc(-c2ccc3nccc(-c4ccnnc4)c3c2)cc1NS(=O)(=O)c1ccc(F)cc1F` displays remaining activity at 1 µM of 63

GET /value?item= `Nc1cc(C(F)(F)F)c(-c2cc(N3CCOCC3)nc(N3CCOCC3)n2)cn1` &field=remaining activity at 1 µM returns 94

Entry under test: `FC(F)c1nc2ccccc2n1-c1nc(N2CCOCC2)nc(N2CCOCC2)n1` . Its remaining activity at 1 µM was 100

`Cn1c(=O)n(-c2ccc(C(C)(C)C#N)cc2)c2c3cc(-c4cnc5ccccc5c4)ccc3ncc21` has a reported remaining activity at 1 µM of 100

----------
So I've got a bunch of compounds here, and I need their remaining activity at 1 µM values.
# target_desc: panel of 442 kinases (Homo sapiens, UniProt Q9Y6E0)
# Construct: purchased Ambit Biosciences (scanMAXX KINOMEscan)
# Sequence (Q9Y6E0 whole entry): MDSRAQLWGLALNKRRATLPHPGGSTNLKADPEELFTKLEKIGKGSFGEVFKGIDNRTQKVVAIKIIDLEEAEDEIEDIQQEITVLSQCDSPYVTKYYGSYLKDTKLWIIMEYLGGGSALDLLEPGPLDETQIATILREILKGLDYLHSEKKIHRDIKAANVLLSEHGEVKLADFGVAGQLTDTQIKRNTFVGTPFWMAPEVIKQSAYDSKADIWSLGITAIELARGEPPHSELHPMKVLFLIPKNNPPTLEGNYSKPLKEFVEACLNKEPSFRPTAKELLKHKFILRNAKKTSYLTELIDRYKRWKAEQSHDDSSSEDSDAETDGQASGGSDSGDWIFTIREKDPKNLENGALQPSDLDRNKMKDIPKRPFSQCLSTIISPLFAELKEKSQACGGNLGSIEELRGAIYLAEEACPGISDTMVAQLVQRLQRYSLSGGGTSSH
# test_protocol: biochemical
# Type: binding
# reported_conditions: kinase MST3; 1 µM; read-out: % of control at 1 µM
# output: bare number, implied unit %

Form: compound = `Nc1cc(C(F)(F)F)c(-c2cc(N3CCOCC3)nc(N3CCOCC3)n2)cn1` ; remaining activity at 1 µM = 100

Memo: `COc1ncc(-c2ccc3nccc(-c4ccnnc4)c3c2)cc1NS(=O)(=O)c1ccc(F)cc1F` , reported remaining activity at 1 µM: 100

Quick note, remaining activity at 1 µM for `Cn1c(=O)n(-c2ccc(C(C)(C)C#N)cc2)c2c3cc(-c4cnc5ccccc5c4)ccc3ncc21` landed at 82

Form field remaining activity at 1 µM, entry `FC(F)c1nc2ccccc2n1-c1nc(N2CCOCC2)nc(N2CCOCC2)n1` : 99

----------
# target_desc: panel of 442 kinases (Homo sapiens)
# Construct: purchased Ambit Biosciences (scanMAXX KINOMEscan)
# test_protocol: biochemical
# Format: binding
# reported_conditions: FLT1; 1 µM; read-out: % of control at 1 µM
Provide the reported remaining activity at 1 µM of each item.
# output: number + unit

Summary for this molecule, `COc1ncc(-c2ccc3nccc(-c4ccnnc4)c3c2)cc1NS(=O)(=O)c1ccc(F)cc1F` : remaining activity at 1 µM is 100%

In plain terms, `Nc1cc(C(F)(F)F)c(-c2cc(N3CCOCC3)nc(N3CCOCC3)n2)cn1` has a documented remaining activity at 1 µM of 100%

Query `Cn1c(=O)n(-c2ccc(C(C)(C)C#N)cc2)c2c3cc(-c4cnc5ccccc5c4)ccc3ncc21` yields remaining activity at 1 µM of 86%

For `FC(F)c1nc2ccccc2n1-c1nc(N2CCOCC2)nc(N2CCOCC2)n1` the molecule record lists remaining activity at 1 µM as 100%

----------
# target_desc: panel of 442 kinases (Homo sapiens, UniProt P06239)
# Construct: purchased Ambit Biosciences (scanMAXX KINOMEscan)
# Sequence (P06239 whole entry): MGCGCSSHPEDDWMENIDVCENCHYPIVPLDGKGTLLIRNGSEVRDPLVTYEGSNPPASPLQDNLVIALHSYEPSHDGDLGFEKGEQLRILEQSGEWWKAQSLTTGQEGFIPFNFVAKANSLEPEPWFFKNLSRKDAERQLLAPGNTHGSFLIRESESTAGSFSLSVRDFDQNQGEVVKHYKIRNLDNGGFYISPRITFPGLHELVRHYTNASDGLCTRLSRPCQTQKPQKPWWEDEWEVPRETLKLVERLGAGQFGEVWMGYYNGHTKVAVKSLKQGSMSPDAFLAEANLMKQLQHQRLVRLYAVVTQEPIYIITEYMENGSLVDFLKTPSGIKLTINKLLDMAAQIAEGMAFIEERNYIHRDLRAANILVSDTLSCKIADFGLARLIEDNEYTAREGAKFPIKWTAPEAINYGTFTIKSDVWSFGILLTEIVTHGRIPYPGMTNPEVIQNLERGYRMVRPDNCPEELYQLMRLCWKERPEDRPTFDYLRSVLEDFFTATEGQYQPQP
# test_protocol: biochemical
# Type: binding
# reported_conditions: kinase LCK; 1 µM; read-out: % of control at 1 µM
reported_property: remaining activity at 1 µM

The recorded remaining activity at 1 µM for entry `COc1ncc(-c2ccc3nccc(-c4ccnnc4)c3c2)cc1NS(=O)(=O)c1ccc(F)cc1F` equals 100%

Summary for this compound, `Cn1c(=O)n(-c2ccc(C(C)(C)C#N)cc2)c2c3cc(-c4cnc5ccccc5c4)ccc3ncc21` : remaining activity at 1 µM is 88%

Field remaining activity at 1 µM (entry `Nc1cc(C(F)(F)F)c(-c2cc(N3CCOCC3)nc(N3CCOCC3)n2)cn1` ) reads 100%

# compound `FC(F)c1nc2ccccc2n1-c1nc(N2CCOCC2)nc(N2CCOCC2)n1` ; its remaining activity at 1 µM = 100%

----------
# target_desc: panel of 442 kinases (Homo sapiens)
# Construct: purchased Ambit Biosciences (scanMAXX KINOMEscan)
# test_protocol: biochemical
# Type: binding
# reported_conditions: CSNK2A1; 1 µM; read-out: % of control at 1 µM
reported_property: remaining activity at 1 µM (%)
Number only, in %; omit the unit.

Just so you know, measured remaining activity at 1 µM for `COc1ncc(-c2ccc3nccc(-c4ccnnc4)c3c2)cc1NS(=O)(=O)c1ccc(F)cc1F` came out at 100

# remaining activity at 1 µM (molecule: `Nc1cc(C(F)(F)F)c(-c2cc(N3CCOCC3)nc(N3CCOCC3)n2)cn1` ) is 91

Documented remaining activity at 1 µM of `FC(F)c1nc2ccccc2n1-c1nc(N2CCOCC2)nc(N2CCOCC2)n1` : 90

remaining activity at 1 µM in this record for `Cn1c(=O)n(-c2ccc(C(C)(C)C#N)cc2)c2c3cc(-c4cnc5ccccc5c4)ccc3ncc21` : 64

----------
# target_desc: panel of 442 kinases (Homo sapiens, UniProt O14578)
# Construct: purchased Ambit Biosciences (scanMAXX KINOMEscan)
# Sequence (O14578 whole entry): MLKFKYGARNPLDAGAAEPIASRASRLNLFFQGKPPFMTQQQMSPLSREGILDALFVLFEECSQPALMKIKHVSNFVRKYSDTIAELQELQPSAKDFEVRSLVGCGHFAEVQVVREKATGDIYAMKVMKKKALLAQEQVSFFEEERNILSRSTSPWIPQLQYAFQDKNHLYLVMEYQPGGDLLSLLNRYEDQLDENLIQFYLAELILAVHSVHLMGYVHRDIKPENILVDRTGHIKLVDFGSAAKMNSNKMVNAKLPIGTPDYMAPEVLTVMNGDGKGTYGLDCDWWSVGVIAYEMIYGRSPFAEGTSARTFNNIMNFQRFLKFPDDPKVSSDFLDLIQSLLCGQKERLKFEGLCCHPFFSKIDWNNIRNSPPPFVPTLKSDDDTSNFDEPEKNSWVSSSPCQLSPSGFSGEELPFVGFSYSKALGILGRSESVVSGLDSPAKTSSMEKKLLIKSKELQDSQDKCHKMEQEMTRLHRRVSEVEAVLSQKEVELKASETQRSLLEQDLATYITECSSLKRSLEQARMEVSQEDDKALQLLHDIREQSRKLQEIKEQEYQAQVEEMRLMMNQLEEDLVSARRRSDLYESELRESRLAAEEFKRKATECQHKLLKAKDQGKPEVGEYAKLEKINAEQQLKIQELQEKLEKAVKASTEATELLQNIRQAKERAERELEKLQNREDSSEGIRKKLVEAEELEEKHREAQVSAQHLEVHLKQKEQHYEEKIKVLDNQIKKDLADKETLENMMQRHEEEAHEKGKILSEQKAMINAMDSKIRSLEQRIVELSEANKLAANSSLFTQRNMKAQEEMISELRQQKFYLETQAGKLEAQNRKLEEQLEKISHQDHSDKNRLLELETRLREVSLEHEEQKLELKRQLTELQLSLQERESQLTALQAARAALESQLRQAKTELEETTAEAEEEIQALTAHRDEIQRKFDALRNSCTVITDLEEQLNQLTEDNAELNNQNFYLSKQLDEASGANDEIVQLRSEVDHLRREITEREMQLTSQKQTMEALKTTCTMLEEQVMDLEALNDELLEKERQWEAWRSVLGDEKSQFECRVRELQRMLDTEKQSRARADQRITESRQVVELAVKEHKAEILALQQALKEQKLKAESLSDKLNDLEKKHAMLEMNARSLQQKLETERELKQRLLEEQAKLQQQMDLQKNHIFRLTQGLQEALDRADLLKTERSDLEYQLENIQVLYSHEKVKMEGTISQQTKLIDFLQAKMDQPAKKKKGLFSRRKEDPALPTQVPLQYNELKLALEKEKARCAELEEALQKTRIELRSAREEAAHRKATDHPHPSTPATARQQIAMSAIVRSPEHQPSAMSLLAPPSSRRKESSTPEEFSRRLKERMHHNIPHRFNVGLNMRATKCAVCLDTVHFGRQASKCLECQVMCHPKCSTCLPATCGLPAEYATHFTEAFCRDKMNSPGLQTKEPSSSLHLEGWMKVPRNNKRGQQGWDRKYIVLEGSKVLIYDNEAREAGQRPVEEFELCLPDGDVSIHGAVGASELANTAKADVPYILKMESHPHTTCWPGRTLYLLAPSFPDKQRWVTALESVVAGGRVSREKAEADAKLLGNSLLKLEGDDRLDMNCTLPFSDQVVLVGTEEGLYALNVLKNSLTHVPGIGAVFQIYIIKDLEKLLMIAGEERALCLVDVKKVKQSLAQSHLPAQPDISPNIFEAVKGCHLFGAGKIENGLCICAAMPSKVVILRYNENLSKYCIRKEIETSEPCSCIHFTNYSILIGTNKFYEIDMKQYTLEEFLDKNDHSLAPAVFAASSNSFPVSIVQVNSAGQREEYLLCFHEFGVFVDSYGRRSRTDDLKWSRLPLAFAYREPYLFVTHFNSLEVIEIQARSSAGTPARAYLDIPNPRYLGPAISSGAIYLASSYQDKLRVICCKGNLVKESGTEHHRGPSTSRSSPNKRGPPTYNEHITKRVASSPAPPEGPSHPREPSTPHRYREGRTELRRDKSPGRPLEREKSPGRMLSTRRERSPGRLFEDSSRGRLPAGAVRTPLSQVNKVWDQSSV
# test_protocol: biochemical
# Type: binding
# reported_conditions: CIT; 1 µM; read-out: % of control at 1 µM
Task for the reader: assign each of the following molecules its reported remaining activity at 1 µM.
Give the number; % is assumed, so skip it.

The measured remaining activity at 1 µM that Nc1cc(C(F)(F)F)c(-c2cc(N3CCOCC3)nc(N3CCOCC3)n2)cn1 [Buparlisib] showed for panel of 442 kinases (Homo sapiens, UniProt O14578) is 100

COc1ncc(-c2ccc3nccc(-c4ccnnc4)c3c2)cc1NS(=O)(=O)c1ccc(F)cc1F [Omipalisib] on panel of 442 kinases (Homo sapiens, UniProt O14578) gives remaining activity at 1 µM = 100

Value sought: remaining activity at 1 µM, system panel of 442 kinases (Homo sapiens, UniProt O14578), item FC(F)c1nc2ccccc2n1-c1nc(N2CCOCC2)nc(N2CCOCC2)n1 [ZSTK474] . Result: 100

Value (remaining activity at 1 µM, panel of 442 kinases (Homo sapiens, UniProt O14578)) for record Cn1c(=O)n(-c2ccc(C(C)(C)C#N)cc2)c2c3cc(-c4cnc5ccccc5c4)ccc3ncc21 [Dactolisib] = 65

The reported measurements were obtained from paper PMC5564600.
